Here, each record is paired with measured growth inhibition data.
Assay: NCI Yeast Anticancer Drug Screen. Data for the mec2-1 strain (AID 157)
Settings: S. cerevisiae mec2-1 strain, stronger effect = higher value; at 50.0 µM unless noted
This is part of a sample that, as a whole, favours compounds with a hit. Of some 79,000 tested, about 15% had one in any assay.
Return type: number; implicit unit %.

molecule	readingUnit	reported
Nc1ncnc2c1c(-c1nnc(-c3ccccc3)c(-c3ccccc3)n1)cn2C1OC(CO)C(O)C1O (stereo unspecified)	%	-2.8

Here is another molecule to look at.
# growth inhibition (molecule: `C[C@H](CCC1=NCCN1)[C@H]1CC[C@H]2[C@@H]3CC[C@@H]4C[C@H](O)CC[C@]4(C)[C@H]3CC[C@]12C` ) is 92.8

The origin of these recorded values is PubChem BioAssay (NCI).
